# SYSTEM TESTED: panel of more than 300 wild-type and mutant kinases (313 kinase panel) (Homo sapiens, UniProt P30530)
# Sequence (P30530 26-894, change not shown): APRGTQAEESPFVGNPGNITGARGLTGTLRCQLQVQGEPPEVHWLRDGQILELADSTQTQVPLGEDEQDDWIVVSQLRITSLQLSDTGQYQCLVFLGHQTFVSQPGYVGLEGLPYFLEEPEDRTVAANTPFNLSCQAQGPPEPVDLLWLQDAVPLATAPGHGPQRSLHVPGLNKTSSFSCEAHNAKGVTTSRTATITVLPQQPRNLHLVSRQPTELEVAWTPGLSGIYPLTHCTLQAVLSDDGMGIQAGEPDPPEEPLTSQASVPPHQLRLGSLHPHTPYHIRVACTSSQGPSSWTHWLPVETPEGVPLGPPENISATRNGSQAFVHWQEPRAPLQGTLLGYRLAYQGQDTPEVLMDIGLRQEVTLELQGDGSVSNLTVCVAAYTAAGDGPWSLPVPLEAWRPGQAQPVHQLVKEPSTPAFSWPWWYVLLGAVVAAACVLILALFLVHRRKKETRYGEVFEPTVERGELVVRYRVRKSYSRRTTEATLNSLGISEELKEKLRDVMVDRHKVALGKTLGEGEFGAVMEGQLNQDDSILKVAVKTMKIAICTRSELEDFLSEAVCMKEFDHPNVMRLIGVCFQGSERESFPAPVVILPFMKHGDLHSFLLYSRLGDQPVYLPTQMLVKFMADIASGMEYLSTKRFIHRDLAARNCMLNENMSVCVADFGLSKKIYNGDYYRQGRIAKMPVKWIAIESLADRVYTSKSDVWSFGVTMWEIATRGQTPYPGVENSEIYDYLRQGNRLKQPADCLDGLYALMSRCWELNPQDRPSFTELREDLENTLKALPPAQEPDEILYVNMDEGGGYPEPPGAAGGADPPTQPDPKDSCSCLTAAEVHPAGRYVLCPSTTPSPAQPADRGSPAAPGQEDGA
# MEASUREMENT NOTES: Kinase profiling in a biochemical assay panel (mobility shift assays and ELISA), %-inhibition at 1 μM; selectivity entropy
# CONDITION LABEL: kinase AXL; 1 μM compound
PROPERTY LABEL: %-inhibition, AXL (%)
Please give a number only; it is taken to be in %.

Please supply the value of reported %-inhibition, AXL for the item "Cc1ccc(C(=O)Nc2ccc(CN3CCN(C)CC3)c(C(F)(F)F)c2)cc1C#Cc1cnc2cccnn12" 70

Please supply the value of reported %-inhibition, AXL for the item "N#CC[C@H](C1CCCC1)n1cc(-c2ncnc3[nH]ccc23)cn1" 12

Please supply the value of reported %-inhibition, AXL for the item "Cc1cn(-c2cc(NC(=O)c3ccc(C)c(Nc4nccc(-c5cccnc5)n4)c3)cc(C(F)(F)F)c2)cn1" -4.75

Please supply the value of reported %-inhibition, AXL for the item "CO[C@H]1C[C@@H]2CC[C@@H](C)[C@@](O)(O2)C(=O)C(=O)N2CCCC[C@H]2C(=O)O[C@H]([C@H](C)C[C@@H]2CC[C@@H](OCCO)[C@H](OC)C2)CC(=O)[C@H](C)/C=C(\C)[C@@H](O)[C@@H](OC)C(=O)[C@H](C)C[C@H](C)/C=C/C=C/C=C/1C" -1.68

Please supply the value of reported %-inhibition, AXL for the item "CC(=O)Nc1cccc(-n2c(=O)n(C3CC3)c(=O)c3c(Nc4ccc(I)cc4F)n(C)c(=O)c(C)c32)c1" -1.12

Please supply the value of reported %-inhibition, AXL for the item COc1cc2nccc(Oc3ccc(NC(=O)C4(C(=O)Nc5ccc(F)cc5)CC4)cc3)c2cc1OC [cabozantinib] 100

Please supply the value of reported %-inhibition, AXL for the item "CCCS(=O)(=O)Nc1ccc(F)c(C(=O)c2c[nH]c3ncc(-c4ccc(Cl)cc4)cc23)c1F" 20

Please supply the value of reported %-inhibition, AXL for the item "CC(C)(C)c1nc(-c2cccc(NS(=O)(=O)c3c(F)cccc3F)c2F)c(-c2ccnc(N)n2)s1" 30

Please supply the value of reported %-inhibition, AXL for the item "Cc1ccc(Nc2nccc(N(C)c3ccc4c(C)n(C)nc4c3)n2)cc1S(N)(=O)=O" 24

Please supply the value of reported %-inhibition, AXL for the item "CO[C@H]1C[C@@H]2CC[C@@H](C)[C@@](O)(O2)C(=O)C(=O)N2CCCC[C@H]2C(=O)O[C@H]([C@H](C)C[C@@H]2CC[C@@H](OC(=O)C(C)(CO)CO)[C@H](OC)C2)CC(=O)[C@H](C)/C=C(\C)[C@@H](O)[C@@H](OC)C(=O)[C@H](C)C[C@H](C)/C=C/C=C/C=C/1C" -1.78

Please supply the value of reported %-inhibition, AXL for the item "CNC(=O)c1cc(Oc2ccc(NC(=O)Nc3ccc(Cl)c(C(F)(F)F)c3)c(F)c2)ccn1" 29

Please supply the value of reported %-inhibition, AXL for the item "O=S(=O)(c1cccc2cnccc12)N1CCCNCC1" 2.62

Please supply the value of reported %-inhibition, AXL for the item "CCN(CC)CCNC(=O)c1c(C)[nH]c(/C=C2\C(=O)Nc3ccc(F)cc32)c1C" 98
